These data points were gathered from patent WO2021228904A1.

# studyTarget: stabilized prefusion SARS-CoV-2 S ectodomain (SARS-CoV-2 (Wuhan-Hu-1), UniProt P0DTC2 15-1138)
# methodDescription: SPR
pKd: −log10 of the molar value.
parameter: pKd

1. 002_P2H1 (antibody, V domains shown) VH: EVQLVESGGGLIQPGGSLRLSCAASGFTVSSNYMSWVRQAPGKGLEWVSVIYSGGSTYYADSVKGRFTISRDNSKNTLYLQMNSLRAEDTAVYYCASPLLLTPPDYYYYMDVWGKGTMVTVSS VL: DVVMTQSPSSLSVSVGDRVTITCRASQGIRNDLGWYQQKPGKAPKRLIYAASSLQSGVPSRFSGSGSGTEFTLTISSLQPEDFATYYCLQHNSYLWTFGQGTKLEIK    ≥ 9.00
2. SEQ ID NOs: 405/409 (HCVR/LCVR) (antibody, V domains shown) VH: EVQLVESGAEVKKPGASVKVSCKVSGYTLPELSMHWVRQTPGKGLEWMGGFDPEDGETIYAQKFQGRVTMTEDTSTDTAYMELSSLRSEDTAVYYCATGPTIAAAATNWFDPGGQGTLVTVSS VL: QPVLTQPASVSGSPGQSITISCTGTSSDVGGYNYVSWYQQHPGKAPKLMIYDVSNRPSGVSNRFSGSRSGDTASLTISGLQAEDEADYYCSSYTSSSTWVFGGGTKLTVL    ≥ 9.00
